# Test system: NCI-H929 complex spheroids, viability % test/control
# Procedure summary: Anticancer human tumor NCI-H929 cell line growth inhibition [RAS];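 note: compound exposure lasted seven days before viability was read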
# Settings: curve of first compound; second compound 0.01 µM
Recorded pIC50 values for a group of compounds are listed next.
// pIC50: -log10(molar conc.)

The following compounds have reported results that may help.
INSERT INTO assay_data (compound, recorded_measurement) VALUES
  ('CCc1c2c(nc3ccc(O)cc13)-c1cc3c(c(=O)n1C2)COC(=O)[C@]3(O)CC + C=CC(=O)N1CCN(c2nc(OCC3CCCN3C)nc3c(F)c(-c4nc(N)cc(C)c4C(F)(F)F)c(Cl)cc23)C(C)C1', 8.71),
  ('CC1(O)CCCC1n1c(=O)c(C(F)F)cc2cnc(NC3CCN(S(C)(=O)=O)CC3)nc21 (stereo not given) + C=CC(=O)N1CCN(c2nc(OCC3CCCN3C)nc3c(F)c(-c4nc(N)cc(C)c4C(F)(F)F)c(Cl)cc23)C(C)C1', 6.72),
  ('CC(C)NCC(C(=O)N1CCN(c2ncnc3c2C(C)CC3O)CC1)c1ccc(Cl)cc1 (stereo not given) + C=CC(=O)N1CCN(c2nc(OCC3CCCN3C)nc3c(F)c(-c4nc(N)cc(C)c4C(F)(F)F)c(Cl)cc23)C(C)C1', 5.51);

Okay, next one:
Exercise: Request: pIC50, test system NCI-H929 complex spheroids, viability % test/control, entry CC1(C)CCC(Nc2ncc(C(F)(F)F)c(-c3c[nH]c4c(P(C)(C)=O)c(C#N)ccc34)n2)CN1 (stereo not given) + C=CC(=O)N1CCN(c2nc(OCC3CCCN3C)nc3c(F)c(-c4nc(N)cc(C)c4C(F)(F)F)c(Cl)cc23)C(C)C1
Key: 8.20

Every entry's value here was drawn from PubChem BioAssay AID2060884.
